The following compounds are shown together with reported DC50 values.
Biological target: BRAF V600E (Homo sapiens, UniProt P15056+Q96SW2, V600E)
Construct: knock-in of the HiBiT tag to the endogenous BRAF V600E locus; host or cells: A375.10 (A375 clonal line, CRISPR HiBiT knock-in at the endogenous BRAF V600E locus)
Sequence (P15056 whole entry V600E): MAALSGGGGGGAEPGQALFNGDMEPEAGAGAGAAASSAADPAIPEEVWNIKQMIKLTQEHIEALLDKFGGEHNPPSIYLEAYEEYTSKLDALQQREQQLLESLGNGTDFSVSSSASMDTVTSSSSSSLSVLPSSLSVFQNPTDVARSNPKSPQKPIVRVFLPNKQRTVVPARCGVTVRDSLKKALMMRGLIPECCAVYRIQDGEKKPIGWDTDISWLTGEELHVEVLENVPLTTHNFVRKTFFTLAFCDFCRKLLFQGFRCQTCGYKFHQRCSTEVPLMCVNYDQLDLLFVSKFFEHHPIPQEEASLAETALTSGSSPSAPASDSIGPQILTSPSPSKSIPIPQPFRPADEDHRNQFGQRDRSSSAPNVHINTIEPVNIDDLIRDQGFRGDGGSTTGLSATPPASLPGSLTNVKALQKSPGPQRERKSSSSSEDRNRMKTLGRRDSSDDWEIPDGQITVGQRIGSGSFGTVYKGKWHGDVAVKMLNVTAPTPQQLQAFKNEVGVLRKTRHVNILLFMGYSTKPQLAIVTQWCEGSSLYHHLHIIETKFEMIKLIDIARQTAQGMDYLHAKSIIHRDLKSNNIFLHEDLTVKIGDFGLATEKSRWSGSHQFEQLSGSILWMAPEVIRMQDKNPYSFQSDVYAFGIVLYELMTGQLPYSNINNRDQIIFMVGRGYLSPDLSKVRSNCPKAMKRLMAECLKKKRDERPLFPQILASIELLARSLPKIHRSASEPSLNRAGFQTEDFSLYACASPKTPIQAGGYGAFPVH
Sequence (Q96SW2 whole entry): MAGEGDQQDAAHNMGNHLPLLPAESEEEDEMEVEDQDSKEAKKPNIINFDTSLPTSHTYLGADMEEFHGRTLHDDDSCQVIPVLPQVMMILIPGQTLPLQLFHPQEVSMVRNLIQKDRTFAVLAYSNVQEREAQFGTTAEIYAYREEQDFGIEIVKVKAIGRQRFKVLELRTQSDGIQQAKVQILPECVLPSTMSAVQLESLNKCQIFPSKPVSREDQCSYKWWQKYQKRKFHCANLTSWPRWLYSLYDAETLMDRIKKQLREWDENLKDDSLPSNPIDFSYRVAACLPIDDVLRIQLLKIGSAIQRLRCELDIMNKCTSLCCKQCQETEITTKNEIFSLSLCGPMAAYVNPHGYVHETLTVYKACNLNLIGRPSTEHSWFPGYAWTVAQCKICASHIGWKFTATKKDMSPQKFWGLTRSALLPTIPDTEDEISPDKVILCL
Sequence (Q16531 whole entry partner): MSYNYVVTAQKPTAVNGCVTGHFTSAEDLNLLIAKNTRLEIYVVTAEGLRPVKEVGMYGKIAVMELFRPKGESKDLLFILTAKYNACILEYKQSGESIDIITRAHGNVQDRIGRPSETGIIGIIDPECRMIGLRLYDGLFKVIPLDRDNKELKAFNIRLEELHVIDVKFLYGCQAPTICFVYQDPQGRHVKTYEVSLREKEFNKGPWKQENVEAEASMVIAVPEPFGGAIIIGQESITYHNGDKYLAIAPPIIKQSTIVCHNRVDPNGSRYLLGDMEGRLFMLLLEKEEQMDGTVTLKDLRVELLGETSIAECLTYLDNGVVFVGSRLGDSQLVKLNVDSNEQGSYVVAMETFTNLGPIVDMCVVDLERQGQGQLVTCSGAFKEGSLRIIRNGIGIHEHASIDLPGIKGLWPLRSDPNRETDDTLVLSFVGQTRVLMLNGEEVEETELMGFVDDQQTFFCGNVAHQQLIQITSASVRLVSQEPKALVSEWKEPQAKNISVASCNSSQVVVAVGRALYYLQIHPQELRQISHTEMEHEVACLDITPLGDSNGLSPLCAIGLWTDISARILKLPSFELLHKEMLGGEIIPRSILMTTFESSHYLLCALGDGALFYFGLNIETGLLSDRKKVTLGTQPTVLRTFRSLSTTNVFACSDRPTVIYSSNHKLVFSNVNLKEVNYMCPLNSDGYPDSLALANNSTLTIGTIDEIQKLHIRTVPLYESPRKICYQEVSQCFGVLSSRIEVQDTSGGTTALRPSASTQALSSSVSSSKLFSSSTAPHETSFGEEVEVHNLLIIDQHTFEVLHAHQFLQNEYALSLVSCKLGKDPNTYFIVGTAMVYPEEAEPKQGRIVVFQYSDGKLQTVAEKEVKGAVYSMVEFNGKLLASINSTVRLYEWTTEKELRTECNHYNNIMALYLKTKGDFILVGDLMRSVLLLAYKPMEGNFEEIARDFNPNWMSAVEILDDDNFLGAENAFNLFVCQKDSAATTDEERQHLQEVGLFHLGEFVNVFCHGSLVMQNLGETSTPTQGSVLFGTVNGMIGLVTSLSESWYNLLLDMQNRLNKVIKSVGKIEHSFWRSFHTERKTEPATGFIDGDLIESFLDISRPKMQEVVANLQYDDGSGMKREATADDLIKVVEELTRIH
Test: BRAF V600E HiBiT Degradation Assay
Format: cell-based
Conditions: A375.10 cells, HiBiT, BRAF V600E, 24 hours; read-out: HiBiT-Degradation A375.10 BRAF 24 hours DC50
Measurement kind: DC50

[
  {
    "Compound": "CO[C@H]1CCN(S(=O)(=O)Nc2ccc(F)c(Oc3ccc4ncn([C@H]5COC6(CCN(C7CC8(C7)CN(c7cc9c(cc7F)c(N7CCC(=O)NC7=O)nn9C)C8)CC6)C5)c(=O)c4c3)c2C#N)C1",
    "Result": "< 1000 nM"
  },
  {
    "Compound": "CO[C@@H]1CCN(S(=O)(=O)Nc2ccc(F)c(Oc3ccc4ncn(C5CC6(CCN(C7CCC(c8cc9c(cc8F)c(N8CCC(=O)NC8=O)nn9C)CC7)CC6)C5)c(=O)c4c3)c2C#N)C1 (single isomer, unassigned) [Compound 101]",
    "Result": "< 1000 nM"
  },
  {
    "Compound": "CCN(C)S(=O)(=O)Nc1ccc(F)c(Oc2ccc3ncn([C@H]4COC5(C4)CN(C4CC6(C4)CN(c4cc7c(cc4F)c(N4CCC(=O)NC4=O)nn7C)C6)C5)c(=O)c3c2)c1C#N",
    "Result": "< 1000 nM"
  },
  {
    "Compound": "CCN(C)S(=O)(=O)Nc1ccc(F)c(Oc2ccc3ncn([C@H]4COC5(CCN(C6CCC(c7cc8c(cc7F)c(N7CCC(=O)NC7=O)nn8C)CC6F)CC5)C4)c(=O)c3c2)c1C#N (single isomer, unassigned)",
    "Result": "< 1000 nM"
  },
  {
    "Compound": "Cn1nc(N2CCC(=O)NC2=O)c2cc(F)c(C3CCC(N4CCC5(CC4)C[C@@H](n4cnc6ccc(Oc7c(F)ccc(NS(=O)(=O)C8CCCC8)c7C#N)cc6c4=O)CO5)CC3)cc21 (single isomer, unassigned)",
    "Result": "< 1000 nM"
  },
  {
    "Compound": "CN(CCO)S(=O)(=O)Nc1ccc(F)c(Oc2ccc3ncn(C4CC5(CCN(C6CCC(c7cc8c(cc7F)c(N7CCC(=O)NC7=O)nn8C)CC6)CC5)C4)c(=O)c3c2)c1C#N (single isomer, unassigned) [Compound 82]",
    "Result": "< 1000 nM"
  },
  {
    "Compound": "CCN(C)S(=O)(=O)Nc1ccc(F)c(Oc2ccc3ncn([C@@H]4COC5(C4)CN(C4CCC(c6cc7c(cc6F)c(N6CCC(=O)NC6=O)nn7C)CC4)C5)c(=O)c3c2)c1C#N (single isomer, unassigned)",
    "Result": "< 1000 nM"
  },
  {
    "Compound": "CCN(C)S(=O)(=O)Nc1ccc(F)c(Oc2ccc3ncn([C@@H]4COC5(CCN(C6CCC(c7ccc(NC8CCC(=O)NC8=O)cc7F)CC6)CC5)C4)c(=O)c3c2F)c1C#N (single isomer, unassigned)",
    "Result": "< 1000 nM"
  },
  {
    "Compound": "CCN(C)S(=O)(=O)Nc1ccc(F)c(Oc2ccc3ncn(C4CC5(CCN(CC6(O)CCN(c7cc8c(cc7F)c(N7CCC(=O)NC7=O)nn8C)CC6)CC5)C4)c(=O)c3c2)c1C#N",
    "Result": "< 1000 nM"
  }
]
